# tgt: SARS-CoV-2 3CL^pro (Severe acute respiratory syndrome coronavirus 2)
# measurement.notes: biochemical
# Assay type: biochemical
# condition: compared with 7a (7i–7k with 7h)
property: inhibitory activity against SARS-CoV-2 3CL^pro (in words, SAR discussion)

{"compound.string": "COc1cc(OC)cc(C(=O)Nc2nc3c(s2)Cc2cc(C)ccc2-3)c1", "reading": "completely abolished"}
{"compound.string": "COc1cc(OC)cc(C(=O)Nc2nc3c(s2)Cc2cc(Cl)ccc2-3)c1", "reading": "completely abolished"}
{"compound.string": "CCCCOc1ccc2c(c1)Cc1sc(NC(=O)c3cc(OC)cc(OC)c3)nc1-2", "reading": "completely abolished"}
{"compound.string": "COc1ccc2c(c1)Cc1sc(NC(=O)c3cc(OC(C)=O)cc(OC(C)=O)c3)nc1-2", "reading": "dropped significantly"}
{"compound.string": "COc1ccc2c(c1)Cc1sc(NC(=O)c3cc(OC)c(OC)c(OC)c3)nc1-2", "reading": "dropped significantly"}
{"compound.string": "COc1cc(OC)cc(C(=O)Nc2nc3c(s2)Cc2cc(OCC(C)C)ccc2-3)c1", "reading": "completely abolished"}

---

# tgt: SARS-CoV-2 3CL^pro (Severe acute respiratory syndrome coronavirus 2)
# measurement.notes: biochemical
# Format: biochemical
# condition: 20 μM compound; recombinant 3CLpro 40 nM; mean ± SD, n = 3
property: inhibition at 20 µM (%)

{"molecule": "COc1cc(OC)cc(C(=O)Nc2nc(-c3ccc(OC)c(C)c3)cs2)c1 [compound 10b]", "reading": 1.8}
{"molecule": "COc1cc(OC)cc(C(=O)Nc2nc3c(s2)Cc2cc(C)ccc2-3)c1 [compound 7d]", "reading": 21.7}
{"molecule": "COc1cc(OC)cc(C(=O)Nc2nc3c(s2)CCc2cc(OC)ccc2-3)c1 [compound 7l]", "reading": -13.1}
{"molecule": "COc1ccc2c(c1)Cc1sc(NC(=O)c3cccs3)nc1-2 [compound 7j]", "reading": 31.9}
{"molecule": "COc1cccc(C(=O)Nc2nc3c(s2)Cc2cc(OC)ccc2-3)c1 [compound 7h]", "reading": 72.5}
